- assay-overview: Pharmacokinetic test in rats (plasma and brain)
- Assay type: in vivo, SD rats
- assay-setup: rat, in vivo; male SD rats, plasma; i.v. 2.5 mg/kg and i.g. 10 mg/kg groups, route of the parameter not given
measured-quantity: clearance (L/h/kg)

# molecule, measured-quantity, units-of-measure, observed
rows = [
    ("Cc1cc(C)c2c(n1)CN(C(=O)CC1CN(c3ccnc(-n4ccc(C)n4)c3)C1)C2 [Compound 29]", "clearance", "L/h/kg", 1.13),
]

* * *

- assay-overview: Pharmacokinetic test in rats (plasma and brain)
- Format: in vivo, SD rats
- assay-setup: rat; male SD rats, plasma; i.v. 2.5 mg/kg and i.g. 10 mg/kg groups, route of the parameter not given; read-out: AUC0-t

# compound-string, units-of-measure, AUC(0-t)
records = [
    ("Cc1cc(=O)n(C(F)F)c2c1CN(C(=O)CC1CN(c3ccnc(OC4CC(F)(F)C4)c3)C1)C2", "ng·h/mL", 34000),
]

* * *

- assay-overview: Pharmacokinetic test in monkeys
- Type: in vivo
- assay-setup: cynomolgus monkey; male cynomolgus monkeys, plasma; i.v. 1 mg/kg and i.g. 5 mg/kg groups, route of the parameter not given

# molecule, units-of-measure, Cmax
rows = [
    ("Cc1cc(=O)n(C(F)F)c2c1CN(C(=O)CC1CN(c3ccnc(OC4CC(F)(F)C4)c3)C1)C2 [Compound 128]", "ng/mL", 495),
]

* * *

- assay-overview: Pharmacokinetic test in rats (plasma and brain)
- Type: in vivo, SD rats
- assay-setup: rat, in vivo; male SD rats, plasma; i.v. 2.5 mg/kg and i.g. 10 mg/kg groups, route of the parameter not given

# molecule, half-life (min)
rows = [
    ("Cc1cc(C)c2c(n1)CN(C(=O)CC1CN(c3ccnc(-n4ccc(C)n4)c3)C1)C2 [Compound 29]", 38.8),
]

* * *

- assay-overview: Pharmacokinetic test in mice (plasma and brain)
- Type: in vivo, C57 mice
- assay-setup: mouse; male C57 mice, plasma; i.v. 2.5 mg/kg and i.g. 10 mg/kg groups, route of the parameter not given

# molecule, half-life (h)
measured = [
    ("Cc1cc(-c2cnn(C)c2)nc2c1CN(C(=O)CC1CN(c3ccnc(OC4CC(F)(F)C4)c3)C1)C2", 2.2),
    ("Cc1cc(C)c2c(n1)CN(C(=O)CC1CN(c3ccnc(C(F)(F)F)c3)C1)C2 [DZ-01, reference compound]", 1.23),
    ("Cc1cc(=O)n(C(F)F)c2c1CN(C(=O)CC1CN(c3ccnc(OC4CC(F)(F)C4)c3)C1)C2", 2.25),
]

* * *

- assay-overview: Pharmacokinetic test in rats (plasma and brain)
- Assay type: in vivo, SD rats
- assay-setup: rat; male SD rats, plasma; i.v. 2.5 mg/kg and i.g. 10 mg/kg groups, route of the parameter not given
- Excerpt: 3.1 Experimental animals: male SD rats, about 220 g, 6-8 weeks old, divided into an intravenous group and an intragastric group. 3.2 Experimental design: on the day of the experiment, the SD rats were randomly grouped according to their body weights. […] Table 5. Administration information The whole blood was centrifuged to separate the plasma; the brain tissue was rinsed with cold physiological saline to remove the residual blood on the surface, drained out and then homogenized. […]
measured-quantity: clearance

# compound, measured-quantity, observed
data = [
    ("Cc1cc(=O)n(C(F)F)c2c1CN(C(=O)CC1CN(c3ccnc(OC4CC(F)(F)C4)c3)C1)C2 [Compound 128]", "clearance", "6.33 mL/min/kg"),
]

* * *

- assay-overview: Pharmacokinetic test in rats (plasma and brain)
- Format: in vivo, SD rats
- assay-setup: rat; male SD rats, plasma; i.v. 2.5 mg/kg and i.g. 10 mg/kg groups, route of the parameter not given
measured-quantity: Cmax (ng/mL)

# compound-string, observed
measured = [
    ("Cc1cc(=O)n(C(F)F)c2c1CN(C(=O)CC1CN(c3ccnc(OC4CC(F)(F)C4)c3)C1)C2", 5140),
]

* * *

- assay-overview: Pharmacokinetic test in mice (plasma and brain)
- Assay type: in vivo, C57 mice
- assay-setup: mouse, in vivo; male C57 mice, plasma; i.v. 2.5 mg/kg and i.g. 10 mg/kg groups, route of the parameter not given
measured-quantity: half-life (h)

# compound, observed
rows = [
    ("Cc1nc(-c2cnn(C)c2)nc2c1CN(C(=O)CC1CN(c3ccnc(C(F)(F)F)c3)C1)C2 [Compound 122]", 2.94),
]

* * *

- assay-overview: Pharmacokinetic test in rats (plasma and brain)
- Format: in vivo, SD rats
- assay-setup: rat; male SD rats, plasma; i.v. 2.5 mg/kg and i.g. 10 mg/kg groups, route of the parameter not given

# compound, half-life [h]
rows = [
    ("Cc1cc(=O)n(C(F)F)c2c1CN(C(=O)CC1CN(c3ccnc(OC4CC(F)(F)C4)c3)C1)C2 [Compound 128]", 4.68),
]

* * *

- assay-overview: Pharmacokinetic test in mice (plasma and brain)
- Type: in vivo, C57 mice
- assay-setup: mouse, in vivo; male C57 mice, plasma; i.v. 2.5 mg/kg and i.g. 10 mg/kg groups, route of the parameter not given; read-out: AUC0-t
- From the text: 2.1 Experimental animals: male C57 mice, 20-25 g, divided into an intravenous group and an intragastric group. 2.2 Experimental design: on the day of the experiment, the C57 mice were randomly grouped according to their body weights. […] Table 2. Administration information The whole blood was centrifuged to separate the plasma; the brain tissue was rinsed with cold physiological saline to remove the residual blood on the surface, drained out and then homogenized. […]

# molecule, AUC(0-t)
data = [
    ("Cc1nc(-c2cnn(C)c2)nc2c1CN(C(=O)CC1CN(c3ccnc(C(F)(F)F)c3)C1)C2 [Compound 122]", "26300 ng·h/mL"),
]
